From: patent US20240270695A1

- Test system: RPE-Neo or RPE-MYC or RPE-MYC expressing an EGFP-Histone 2B fusion protein
- experiment-notes: Phenotypic screening assay (arrest in mitosis, change in DNA content, cell death; GE IN-Cell Analyzer 2000)
- Format: cell-based
- assay-setup: Homo sapiens; min. effective conc.; compounds 20 nM to 20 μM; 24, 48 or 72 hours; read-out: Cell Death (>30%)
outcome-measure: minimal effective concentration

{"smiles-entry": "CNC(=O)C1=C(O)c2ccccc2N(Cc2ccc(C)c(Br)c2)C(=O)C1", "experimental-system": "RPE-Neo or RPE-MYC or RPE-MYC expressing an EGFP-Histone 2B fusion protein", "outcome-measure": "minimal effective concentration", "recorded-result": "10 to 30 µM"}
{"smiles-entry": "CNC(=O)C1=C(O)c2ccccc2N(Cc2ccc(F)c(F)c2)C(=O)C1", "experimental-system": "RPE-Neo or RPE-MYC or RPE-MYC expressing an EGFP-Histone 2B fusion protein", "outcome-measure": "minimal effective concentration", "recorded-result": "30 to 1000 µM"}
{"smiles-entry": "COC(=O)C1=C(O)c2ccccc2N(Cc2ccc(C)cc2C)C(=O)C1", "experimental-system": "RPE-Neo or RPE-MYC or RPE-MYC expressing an EGFP-Histone 2B fusion protein", "outcome-measure": "minimal effective concentration", "recorded-result": "1 to 10 µM"}
{"smiles-entry": "CNC(=O)C1=C(O)c2ccccc2N(Cc2ccsc2)C(=O)C1", "experimental-system": "RPE-Neo or RPE-MYC or RPE-MYC expressing an EGFP-Histone 2B fusion protein", "outcome-measure": "minimal effective concentration", "recorded-result": "30 to 1000 µM"}
{"smiles-entry": "COc1ccc2c(c1)N(Cc1ccc(C)c(F)c1)C(=O)CC(C(=O)C1CC1)=C2O", "experimental-system": "RPE-Neo or RPE-MYC or RPE-MYC expressing an EGFP-Histone 2B fusion protein", "outcome-measure": "minimal effective concentration", "recorded-result": "0.001 to 1 µM"}

---

- Test system: RPE-Neo or RPE-MYC or RPE-MYC expressing an EGFP-Histone 2B fusion protein
- experiment-notes: Phenotypic screening assay (arrest in mitosis, change in DNA content, cell death; GE IN-Cell Analyzer 2000)
- Type: cell-based
- assay-setup: Homo sapiens; min. effective conc.; compounds 20 nM to 20 μM; 24, 48 or 72 hours; read-out: Cell Death (>30%)
minimal effective concentration values for the molecules below.
outcome-measure: minimal effective concentration

{"molecule": "CNC(=O)C1=C(O)c2ccccc2N(Cc2cc(F)c(F)c(F)c2)C(=O)C1 [Example 105]", "outcome-measure": "minimal effective concentration", "recorded-result": "30 to 1000 µM"}
{"molecule": "CNC(=O)C1=C(O)c2ccccc2N(c2ccc(OC)c(F)c2)C(=O)C1 [Example 95]", "outcome-measure": "minimal effective concentration", "recorded-result": "10 to 30 µM"}
{"molecule": "COC(=O)C1=C(O)c2ccccc2N(Cc2ccc(C)c(Br)c2)C(=O)C1 [Example 46]", "outcome-measure": "minimal effective concentration", "recorded-result": "1 to 10 µM"}
{"molecule": "CCCCc1ccc(CN2C(=O)CC(C(=O)NC)=C(O)c3ccccc32)cc1 [Example 88]", "outcome-measure": "minimal effective concentration", "recorded-result": "30 to 1000 µM"}
{"molecule": "CNC(=O)C1CC(=O)N(Cc2ccc(C)cc2C)c2ccccc2C1=O (stereo not shown) [Example 101]", "outcome-measure": "minimal effective concentration", "recorded-result": "1 to 10 µM"}
{"molecule": "COC(=O)C1=C(O)c2ccccc2N(Cc2ccc(C(C)C)cc2)C(=O)C1 [Example 30]", "outcome-measure": "minimal effective concentration", "recorded-result": "10 to 30 µM"}
{"molecule": "COC(=O)C1=C(O)c2ccccc2N(Cc2ccc(OC)c(F)c2)C(=O)C1 [Example 48]", "outcome-measure": "minimal effective concentration", "recorded-result": "0.001 to 1 µM"}
{"molecule": "CNC(=O)C1=C(O)c2ccccc2N(Cc2ccc(C)cc2)C(=O)C1 [Example 79]", "outcome-measure": "minimal effective concentration", "recorded-result": "1 to 10 µM"}
{"molecule": "CCc1ccc(CN2C(=O)CC(C(=O)NC)=C(O)c3ccccc32)cc1 [Example 86]", "outcome-measure": "minimal effective concentration", "recorded-result": "1 to 10 µM"}
{"molecule": "CNC(=O)C1=C(O)c2ccccc2N(Cc2cc(F)ccc2F)C(=O)C1 [Example 106]", "outcome-measure": "minimal effective concentration", "recorded-result": "30 to 1000 µM"}
{"molecule": "CNC(=O)C1=C(O)c2cc(C)ccc2N(Cc2ccc(C)c(F)c2)C(=O)C1 [Example 136]", "outcome-measure": "minimal effective concentration", "recorded-result": "1 to 10 µM"}
{"molecule": "CNC(=O)C1=C(O)c2ccccc2N(Cc2cc(C)c(F)c(C)c2)C(=O)C1 [Example 121]", "outcome-measure": "minimal effective concentration", "recorded-result": "10 to 30 µM"}
{"molecule": "CNC(=O)C1=C(O)c2ccccc2N(Cc2ccccc2F)C(=O)C1 [Example 78]", "outcome-measure": "minimal effective concentration", "recorded-result": "10 to 30 µM"}
{"molecule": "CCOc1ccc2c(c1)N(Cc1ccc(C)c(F)c1)C(=O)CC(C(=O)NC)=C2O [Example 128]", "outcome-measure": "minimal effective concentration", "recorded-result": "1 to 10 µM"}
{"molecule": "CNC(=O)C1=C(O)c2ccccc2N(Cc2cccc(C)c2C)C(=O)C1 [Example 98]", "outcome-measure": "minimal effective concentration", "recorded-result": "30 to 1000 µM"}
{"molecule": "CNC(=O)C1=C(O)c2ccccc2N(Cc2ccccc2OC)C(=O)C1 [Example 93]", "outcome-measure": "minimal effective concentration", "recorded-result": "10 to 30 µM"}
